Data provenance: PubChem BioAssay

target: Alpha-2C adrenergic receptor (Homo sapiens); experiment: modulators of alpha2C/GIRK thallium flux, primary screen, cell-based, HEK293 alpha2C/GIRK1/2 (AID 624); details: thallium flux BTC fluorescence, at 10 µM, actives lie on both sides;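 further: slope of fluorescence ratio to pre-addition baseline per second over 15 to 24 s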
This listing pairs compounds with measured slope.
Write the value as a bare number.

Answered cases to consult:
{"Compound": "CCOCCN(C(=O)COC)c1cccc(OC)c1", "slope": 0.00531}
{"Compound": "Cn1c(Cl)cnc1C1CC(=O)c2cc(Cl)ccc2O1 (configuration not stated)", "slope": 0.00554}
{"Compound": "COc1ccc2c(c1OC)C(=O)N1c3ccccc3C(=O)N(c3ccccc3)C21 (configuration not stated)", "slope": 0.00449}
{"Compound": "CC1CN(C2CCN(C(=O)c3ccccc3Cl)CC2)CC(C)O1 (configuration not stated)", "slope": 0.00459}
{"Compound": "COc1ccccc1-c1nn2c(-c3ccc(C(C)(C)C)cc3)nnc2s1", "slope": 0.0128}

Q) Look up slope for this compound: COc1cccc(-c2nnc3sc(C4CCCCC4)nn23)c1
A) 0.00489

Q) Form field: reported slope of CCN(CC)S(=O)(=O)c1ccc2c(c1)c(C(=O)O)cn2C
A) 0.00489

Q) Record request: slope value, item Cc1cccc(OCC(=O)N2CCC(N3CCOCC3)CC2)c1
A) 0.00455
